System: OVCAR-8 ovarian
Experiment: NCI-60 one-dose screen, 48 h
Experimental Setup: 10 µM unless noted
Protocol: Growth inhibition of the OVCAR-8 human tumor cell line is measured as a screen for anti-cancer activity. Cells are grown in 96 well plates and exposed to the test compound for 48 hours. Compounds are tested at a single concentration, which is 10^-5 M for most compounds. The reported endpoint is percent growth (GI% or GIPRCNT), where numbers from 0 - 100% represent growth inhibition, and numbers from -100% - 0 represent cell death. For example, a value of 40 represents 60% growth inhibition. […]
Compounds without any hit were thinned out: in the full panel of roughly 83,000, 20% have a hit. Active and inactive are the calls of the source. Rule for the calls: active = growth percent below 10; inactive = the rest.
Labels: label 1 for active, label 0 for inactive

>>> assigned_category("CCCCCCCCCCCCCCCCCC1=NCCN1C(=O)OCCO")
"label 0"
>>> assigned_category("OCCCCc1nccc2c1[nH]c1ccccc12")
"label 0"
>>> assigned_category("Cc1nc(Nc2ccc(N)cc2)c2ccccc2n1")
"label 0"
>>> assigned_category("CCN(CC)CCOC(=O)N1c2ccccc2Sc2ccccc21")
"label 0"
>>> assigned_category("CCCCN1CCN(c2ccc3nc(-c4ccc5nc(-c6ccc(OCC)c(OCC)c6)[nH]c5c4)[nH]c3c2)CC1")
"label 1"
>>> assigned_category("Cc1cc(-c2noc(C(F)(F)F)n2)ccc1N1CCN(c2cc(C(=O)N(C)C)no2)CC1")
"label 0"
>>> assigned_category("COc1ccc(-c2nc3ccccn3c2/C=C/C(=O)c2cc(OC)c(OC)c(OC)c2)cc1")
"label 0"
>>> assigned_category("Cc1nc(Nc2ccc(NC(=S)Nc3ccccc3)cc2)c2ccccc2n1")
"label 0"
>>> assigned_category("N#Cc1cccc(-c2nc3ccccn3c2NCCN2CCOCC2)c1")
"label 0"
>>> assigned_category("O=C(/C=C/C12c3ccccc3C(c3ccccc31)C1C(=O)NC(=O)C12)c1ccc(Cl)cc1 (configuration not stated)")
"label 0"
>>> assigned_category("CCCCCCCCn1cc(C2=C(c3coc4ccc(OC)cc34)C(=O)NC2=O)c2ccccc21")
"label 0"
>>> assigned_category("CNC(=O)c1cc(Oc2ccc3nc(Nc4cc(Cl)cc(Cl)c4)ccc3c2)ccn1")
"label 0"
>>> assigned_category("CC(c1ccc(-n2cccn2)cc1)c1cnc(N2CCc3ccc(C(N)=O)cc3C2)s1 (configuration not stated)")
"label 0"
>>> assigned_category("CC(=O)Nc1nccs1")
"label 0"
>>> assigned_category("COc1ccc(-c2c(N)n[nH]c2-c2ccccc2O)cc1OC")
"label 0"
>>> assigned_category("CCN(CC)CC(=O)Nc1cccc(C(=O)OC(C)C)c1")
"label 0"
>>> assigned_category("C=C(C)[C@@H]1CC[C@@]2(C(=O)O)CC[C@]3(C)C(CCC4[C@@]5(C)CCC(OS(=O)(=O)c6ccccc6)C(C)(C)C5CC[C@]43C)C12 (some centres not stated)")
"label 0"
>>> assigned_category("COc1cc(NC(=O)c2cccc(-c3cc(=O)c4c(OC)c(OC)c(OC)cc4o3)c2)cc(OC)c1OC")
"label 0"
>>> assigned_category("CCCCCCN(CCCCCC)CC(O)c1cccc2ccc(Cl)cc12 (configuration not stated)")
"label 0"
>>> assigned_category("CCNCCNc1cc(C2CCCC2)c(C#N)c2nc3ccccc3n12")
"label 0"
>>> assigned_category("COC1(CC[C@@H](C)COC2OC(CO)C(O)C(O)C2O)O[C@H]2C[C@H]3[C@@H]4CC=C5C[C@@H](OC6OC(CO)C(OC7OC(C)C(O)C(O)C7O)C(O)C6OC6OC(C)C(O)C(O)C6O)CC[C@]5(C)[C@H]4CC[C@]3(C)[C@H]2[C@@H]1C (some centres not stated)")
"label 1"
>>> assigned_category("COc1ccc(C(=O)/C=C/c2cc3c(c(OC)c2)OCC(=O)N3)cc1")
"label 0"
>>> assigned_category("O=C(NC1CCOCC1)c1ccc2c(c1)CN(c1ncc(Cc3cccc(-n4cccn4)c3)s1)CC2")
"label 0"
>>> assigned_category("C=CCN1C(=O)[C@]2(SC1=S)[C@H](c1cccc(Cl)c1)CN(C)[C@]21C(=O)NC2C=CC(Cl)=C[C@H]21 (some centres not stated)")
"label 0"
>>> assigned_category("CN(C)c1ccc(/C=C/c2c(F)cccc2F)cc1")
"label 0"
>>> assigned_category("COc1c(C)cnc(CSc2nc(-c3ccc(C)cc3)cn2-c2ccc(Cl)cc2)c1C")
"label 0"
>>> assigned_category("CN(C)CN1CCN(c2ccc3nc(-c4ccc5nc(-c6ccc(C(F)(F)F)cc6)[nH]c5c4)[nH]c3c2)CC1")
"label 0"
>>> assigned_category("O=C(c1ccccc1)c1ccc(Cl)c([N+](=O)[O-])c1")
"label 0"
>>> assigned_category("C[C@@H]1CC[C@@H]2[C@@H]1[C@H](OC(=O)/C=C/c1ccccc1)[C@]1(CCCOCCOCCOCCOC(=O)CCCC[C@@H]3SC[C@@H]4NC(=O)N[C@@H]43)C[C@@H](OC(=O)CO)[C@@]2(C)O1")
"label 0"
>>> assigned_category("Nc1c(C(=O)c2ccccc2)nnc2ncnn12")
"label 0"
>>> assigned_category("CCCCN(Cc1ccc(C(=O)NO)cc1)C(=O)Nc1ccc(OCCCCCCCCCn2cc(CCCCC(=O)N[C@H](C(=O)N3C[C@H](O)C[C@H]3C(=O)NCc3ccc(-c4scnc4C)cc3)C(C)(C)C)nn2)cc1")
"label 0"
>>> assigned_category("COc1cc(C(=O)/C=C/c2c(C(F)(F)F)nc3ccccn23)cc(OC)c1OC")
"label 1"
>>> assigned_category("N=c1ccn2c(n1)OC1C(O)C(CO)OC12 (configuration not stated)")
"label 0"
>>> assigned_category("N#Cc1c(N)n2c(nc1=Nc1ccc(Cl)cc1)sc1cc(Cl)ccc12")
"label 0"
>>> assigned_category("C=C(C)[C@@H]1CC[C@]2(CO)CC[C@]3(C)[C@H](CC[C@@H]4[C@@]5(C)C=C(C#N)C(=O)C(C)(C)[C@@H]5CC[C@]43C)[C@@H]12")
"label 0"
>>> assigned_category("COc1ccc(NC(=O)C(=O)c2c[nH]c3ccc(F)cc23)cc1")
"label 0"
>>> assigned_category("CC(C)c1ccc(NC(=O)Cc2ccc(Nc3ncnc4cc(-c5cnn(CCN(C)C)c5)ccc34)cc2)cc1")
"label 1"
